Tested on: NL-RLuc virus
Test: Inhibition of HIV replication (NL-RLuc virus, luciferase readout in MT-2 cells)
Type: cell-based
Conditions: Human immunodeficiency virus 1, MT2, 120 h, read-out: Activity
Excerpt: Inhibition of HIV Replication: A recombinant NL-RLuc proviral clone was constructed in which a section of the nef gene from NL4-3 was replaced with the Renilla Luciferase gene. […] In addition, the luciferous reporter provides a simple and easy method for quantitating the extent of virus growth and consequently, the antiviral activity of test compounds. […] Luciferase was quantitated using the Dual Luciferase kit from Promega (Madison, Wis.). […]
measurement label: EC50

Worked cases, EC50 given:
| test smiles | reported |
| --- | --- |
| Cc1nc(C)c([C@H](OC(C)(C)C)C(=O)O)c(-c2ccc3c(c2)CCCO3)c1-c1ccc2c(c1)CCN(C(=O)OCc1ccccc1)C2 | < 100 nM |
| Cc1ccc(-c2c(-c3ccc4c(c3)CCN(Cc3c(C)cccc3F)C4)c(C)nc(C)c2[C@H](OC(C)(C)C)C(=O)O)cc1 | < 100 nM |

Next compound, EC50 to be filled in.
Problem: Read off the recorded EC50 for `Cc1nc(C)c([C@H](OC(C)(C)C)C(=O)O)c(-c2ccc(OCCc3ccc(F)cc3)cc2)c1-c1ccc(OCCc2ccc(F)cc2)cc1`
Solution: 100 to 1000 nM

Source listed as patent US10106504B2.
